Target: HDM2 (Homo sapiens)
Construct: Thioredoxin (N); made in house; host or cells: E. coli strain BL21(DE3)Rosetta
Sequence (Q00987 17-125): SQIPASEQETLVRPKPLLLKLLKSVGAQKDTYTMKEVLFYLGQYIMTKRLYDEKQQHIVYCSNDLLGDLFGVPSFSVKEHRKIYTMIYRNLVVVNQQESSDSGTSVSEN
Test: HDM2 FRET assay (inhibition of binding of FITC labeled p53-pocket peptide to HDM2)
Settings: Table 20; read-out: FRET IC50
pIC50: −log10 of the molar value.
OBSERVABLE: pIC50

# COMPOUND, VALUE
rows = [
    ("C[C@@H](Nc1nc(C(=O)O)nc2nc(C(C)(C)c3ccccc3)n(C[C@H]3CC[C@H](C)CC3)c12)C1CCC1 [Example 20.2]", 8.46),
    ("C[C@@H](Nc1nc(C(=O)O)nc2nc(C3(c4ccccc4)CC3)n(Cc3ccc(C(F)(F)F)cc3)c12)C1CCC1 [Example 20.3]", 8.07),
    ("C[C@@H](Nc1nc(C(=O)O)nc2nc(C3(c4ccccc4)CCC3)n(C[C@H]3CC[C@H](C)CC3)c12)C1CCC1 [Example 20.1]", 8.84),
    ("COc1ncc(Cl)cc1-c1nc(-c2noc(=O)[nH]2)nc2nc(C3(c4ccccc4)CCC3)n(C[C@H]3CC[C@H](C)CC3)c12 [Example 20.14]", 8.21),
    ("C[C@H]1CC[C@H](Cn2c(C3(c4ccccc4)CCC3)nc3nc(-c4n[nH]c(=O)o4)nc(-c4cncc(Cl)c4)c32)CC1 [Example 20.12]", 8.02),
    ("C[C@@H](Nc1nc(C(=O)O)nc2nc(CC(C)(C)C)n(C[C@H]3CC[C@H](C)CC3)c12)C1CCC1 [Example 20.6]", 7.86),
]

====

Molecular target: HDM2 (Homo sapiens)
Construct: Thioredoxin (N); made in house; host or cells: E. coli strain BL21(DE3)Rosetta
Assay: HDM2 FRET assay (inhibition of binding of FITC labeled p53-pocket peptide to HDM2)
Details: Table 22; read-out: FRET IC50
OBSERVABLE: IC50 (nM)

# COMPOUND, TARGET_UNDER_TEST, VALUE
measured = [
    ("Cc1nc(C(C)(F)c2nc3nc(-c4noc(=O)[nH]4)nc(N[C@H](C)C4CCC4)c3n2C[C@H]2CC[C@H](C)CC2)c(C)s1 (single isomer, unassigned) [Example 22.73]", "HDM2 (Homo sapiens)", 4.06),
    ("C[C@@H](Nc1nc(-c2noc(=O)[nH]2)nc2nc(C(F)c3ccccc3)n(C[C@H]3CC[C@H](C)CC3)c12)C1CCC1 (stereo partly drawn)", "HDM2 (Homo sapiens)", 7.12),
    ("C[C@@H](Nc1nc(-c2noc(=O)[nH]2)nc2nc(C(C)(O)C(C)(C)C)n(C[C@H]3CC[C@H](C)CC3)c12)C1CCC1 (stereo partly drawn)", "HDM2 (Homo sapiens)", 10.6),
    ("C[C@@H](Nc1nc(-c2noc(=O)[nH]2)nc2nc(C(C)(F)c3ccccc3F)n(C[C@H]3CC[C@H](C)CC3)c12)C1CCC1 (single isomer, unassigned) [Example 22.62]", "HDM2 (Homo sapiens)", 0.563),
    ("CC(O)c1nc2nc(-c3noc(=O)[nH]3)nc(N[C@H](C)C3CCC3)c2n1C[C@H]1CC[C@H](C)CC1 (single isomer, unassigned) [Example 22.15]", "HDM2 (Homo sapiens)", 45.1),
    ("C[C@@H](Nc1nc(-c2noc(=O)[nH]2)nc2nc(C(=O)C(C)(C)C)n(C[C@H]3CC[C@H](C)CC3)c12)C1CCC1", "HDM2 (Homo sapiens)", 4.65),
    ("C[C@@H](Nc1nc(-c2noc(=O)[nH]2)nc2nc(C(C)(F)c3ccccc3)n(C[C@H]3CC[C@H](C)CC3)c12)C1CCC1 (single isomer, unassigned) [Example 22.78]", "HDM2 (Homo sapiens)", 12.3),
    ("C[C@@H](Nc1nc(-c2noc(=O)[nH]2)nc2nc(C(O)c3ccccc3)n(C[C@H]3CC[C@H](C)CC3)c12)C1CCC1 (stereo partly drawn)", "HDM2 (Homo sapiens)", 1.66),
    ("C[C@@H](Nc1nc(-c2noc(=O)[nH]2)nc2nc(C(C)(O)c3ccncc3)n(C[C@H]3CC[C@H](C)CC3)c12)C1CCC1 (stereo partly drawn)", "HDM2 (Homo sapiens)", 13.6),
    ("C[C@@H](Nc1nc(-c2noc(=O)[nH]2)nc2nc(C(C)(O)c3ccn(C)n3)n(C[C@H]3CC[C@H](C)CC3)c12)C1CCC1 (stereo partly drawn)", "HDM2 (Homo sapiens)", 22.7),
    ("C[C@@H](Nc1nc(-c2noc(=O)[nH]2)nc2nc(C(=O)c3ccccc3)n(C[C@H]3CC[C@H](C)CC3)c12)C1CCC1", "HDM2 (Homo sapiens)", 1),
    ("C[C@@H](Nc1nc(-c2n[nH]c(=O)o2)nc2nc(C(=O)c3ccccc3)n(C[C@H]3CC[C@H](C)CC3)c12)C1CCC1", "HDM2 (Homo sapiens)", 3.93),
    ("C[C@@H](Nc1nc(-c2noc(=O)[nH]2)nc2nc(C(O)(CO)c3ccccc3)n(C[C@H]3CC[C@H](C)CC3)c12)C1CCC1 (single isomer, unassigned) [Example 22.61]", "HDM2 (Homo sapiens)", 2.8),
    ("C[C@@H](Nc1nc(-c2noc(=O)[nH]2)nc2nc(C(C)(O)C(F)(F)F)n(C[C@H]3CC[C@H](C)CC3)c12)C1CCC1 (single isomer, unassigned) [Example 22.13]", "HDM2 (Homo sapiens)", 5.84),
    ("COC(c1cscn1)c1nc2nc(-c3noc(=O)[nH]3)nc(N[C@H](C)C3CCC3)c2n1C[C@H]1CC[C@H](C)CC1 (stereo partly drawn)", "HDM2 (Homo sapiens)", 2.63),
    ("C[C@@H](Nc1nc(-c2noc(=O)[nH]2)nc2nc(C(C)(O)C3CCOCC3)n(C[C@H]3CC[C@H](C)CC3)c12)C1CCC1 (stereo partly drawn)", "HDM2 (Homo sapiens)", 4.76),
    ("C[C@@H](Nc1nc(-c2noc(=O)[nH]2)nc2nc(C3OCc4ccccc43)n(C[C@H]3CC[C@H](C)CC3)c12)C1CCC1 (stereo partly drawn)", "HDM2 (Homo sapiens)", 2.47),
    ("C=C(c1nc2nc(-c3noc(=O)[nH]3)nc(N[C@H](C)C3CCC3)c2n1C[C@H]1CC[C@H](C)CC1)C1CCOCC1", "HDM2 (Homo sapiens)", 5.07),
    ("C[C@@H](Nc1nc(-c2noc(=O)[nH]2)nc2nc(C3(c4cccnc4)CC3)n(C[C@H]3CC[C@H](C)CC3)c12)C1CCC1", "HDM2 (Homo sapiens)", 13.9),
    ("Cc1nc(C(C)(F)c2nc3nc(-c4noc(=O)[nH]4)nc(N[C@H](C)C4CCC4)c3n2C[C@H]2CC[C@H](C)CC2)c(C)s1 (single isomer, unassigned) [Example 22.75]", "HDM2 (Homo sapiens)", 5.48),
    ("C[C@@H](Nc1nc(-c2noc(=O)[nH]2)nc2nc(C3(c4ccccc4F)CC3)n(C[C@H]3CC[C@H](C)CC3)c12)C1CCC1", "HDM2 (Homo sapiens)", 3.57),
]

Values from patent EP2951180B1
